Measured inhibition by item
# assayedSystem: SRSF protein kinase 3 (Homo sapiens) (UniProt Q9UPE1);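 further: mean of replicate inhibition values against MSSK1 kinase, profiled within the GSK PKIS kinase inhibitor set screen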
# Sequence (Q9UPE1 whole entry): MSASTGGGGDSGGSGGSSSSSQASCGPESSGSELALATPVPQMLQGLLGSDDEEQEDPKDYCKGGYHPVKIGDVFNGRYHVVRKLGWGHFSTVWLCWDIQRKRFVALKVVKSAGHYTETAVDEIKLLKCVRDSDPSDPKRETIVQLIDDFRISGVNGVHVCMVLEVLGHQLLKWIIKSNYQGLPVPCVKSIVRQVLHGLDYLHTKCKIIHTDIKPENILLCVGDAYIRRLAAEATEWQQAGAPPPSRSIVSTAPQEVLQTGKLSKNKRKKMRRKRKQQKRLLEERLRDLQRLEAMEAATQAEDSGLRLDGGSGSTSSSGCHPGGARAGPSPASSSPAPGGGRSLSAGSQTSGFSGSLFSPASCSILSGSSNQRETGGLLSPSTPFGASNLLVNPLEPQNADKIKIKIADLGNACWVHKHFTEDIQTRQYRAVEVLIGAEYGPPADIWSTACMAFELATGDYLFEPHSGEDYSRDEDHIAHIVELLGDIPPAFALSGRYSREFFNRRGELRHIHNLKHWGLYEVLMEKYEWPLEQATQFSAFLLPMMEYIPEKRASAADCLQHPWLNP
# cond: at 0.1 µM
Write down the numeric answer in % and omit the unit.

Below, 4 compounds whose answers are already recorded.
1. NS(=O)(=O)c1ccc(N/N=C2\C(=O)Nc3ccc(-c4cnco4)cc32)cc1; -2.14
2. O=C(Nc1n[nH]c2nc(-c3ccc(O)cc3)c(Br)cc12)C1CC1; -1.04
3. CCc1ccc(Oc2nccc(-c3c(-c4ccc(F)cc4)ncn3C3CCNCC3)n2)cc1; 3.09
4. COc1cc2ncn(-c3cc(OCCc4ccccc4)c(C(N)=O)s3)c2cc1OC; -1.68

Item under review: CN1CCN(CCCNc2nc3ccc(Oc4ccc(NC(=O)Nc5cc(C(F)(F)F)ccc5F)cc4)cc3[nH]2)CC1 . Reported inhibition? 2.09

###

# assayedSystem: Dual specificity tyrosine-phosphorylation-regulated kinase 1A (Homo sapiens) (UniProt Q13627)
# cond: at 0.1 µM
# Description: GSK_PKIS: DYRK1A mean inhibition at 0.1 uM [Nanosyn]
Measured inhibition by item
Enter the number, and then the unit.

1) CS(=O)(=O)CCNCc1ccc(-c2ccc3ncnc(Nc4ccc(OCc5ccccc5)c(Br)c4)c3c2)o1; -3.54%
2) COc1cc(C)c(N(C)C(=O)CN(C)C)cc1Nc1nc(Nc2cccc(F)c2C(N)=O)c2cc[nH]c2n1; 2.09%
3) COc1ccc2cc(-c3c(-c4ccncc4)nc(-c4ccc(S(C)(=O)=O)cc4C)n3C)ccc2c1; 2.19%
4) NC(=O)c1cc(-c2ccncc2)cc(-c2ccccc2)c1N; 6.65%
5) COc1cc2ncn(-c3cc(OCCc4ccccc4)c(C(N)=O)s3)c2cc1OC; 3.14%

Item under review: Fc1ccc(-c2ncn(C3CCNCC3)c2-c2ccnc(Oc3ccc4c(c3)OCO4)n2)cc1 . Reported inhibition? 3.17%

Likewise for CCN(CC)Cc1ccc(Nc2nccc(-c3cnn4ncccc34)n2)cc1 ? 40%

Likewise for Cc1nnc(-c2ccc(C)c(-c3ccc(C(=O)NCc4ccc(Cl)cc4)cc3)c2)o1 ? 0.32%

###

# assayedSystem: Tyrosine-protein kinase Fgr (Homo sapiens);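 further: value reported as mean kinase inhibition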
# cond: at 1 µM
measurementKind: inhibition (%)
Write down the numeric answer in % and omit the unit.

Below, 4 compounds whose answers are already recorded.
1) CCc1nccc2c1nc(-c1nonc1N)n2CC; 3.85
2) Fc1ccc(-c2ncn(CCCN3CCOCC3)c2-c2ccncc2)cc1; 3.21
3) NC(=O)c1ccc(Oc2nccc(-c3c(-c4ccc(F)cc4)ncn3C3CCNCC3)n2)cc1; 3.62
4) O=C1Nc2ccc(I)cc2C1=Cc1cc(Br)c(O)c(Br)c1; 3.52

Switching to the query record.
Item under review: COc1cc(C)c(N(C)C(=O)CN(C)C)cc1Nc1nc(Nc2cccc(F)c2C(N)=O)c2cc[nH]c2n1 . Reported inhibition? 2

###

Measured inhibition by item
# assayedSystem: Mitogen-activated protein kinase kinase kinase kinase 2 (Homo sapiens) (UniProt Q12851);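 further: values given as mean percent inhibition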
# Sequence (Q12851 whole entry): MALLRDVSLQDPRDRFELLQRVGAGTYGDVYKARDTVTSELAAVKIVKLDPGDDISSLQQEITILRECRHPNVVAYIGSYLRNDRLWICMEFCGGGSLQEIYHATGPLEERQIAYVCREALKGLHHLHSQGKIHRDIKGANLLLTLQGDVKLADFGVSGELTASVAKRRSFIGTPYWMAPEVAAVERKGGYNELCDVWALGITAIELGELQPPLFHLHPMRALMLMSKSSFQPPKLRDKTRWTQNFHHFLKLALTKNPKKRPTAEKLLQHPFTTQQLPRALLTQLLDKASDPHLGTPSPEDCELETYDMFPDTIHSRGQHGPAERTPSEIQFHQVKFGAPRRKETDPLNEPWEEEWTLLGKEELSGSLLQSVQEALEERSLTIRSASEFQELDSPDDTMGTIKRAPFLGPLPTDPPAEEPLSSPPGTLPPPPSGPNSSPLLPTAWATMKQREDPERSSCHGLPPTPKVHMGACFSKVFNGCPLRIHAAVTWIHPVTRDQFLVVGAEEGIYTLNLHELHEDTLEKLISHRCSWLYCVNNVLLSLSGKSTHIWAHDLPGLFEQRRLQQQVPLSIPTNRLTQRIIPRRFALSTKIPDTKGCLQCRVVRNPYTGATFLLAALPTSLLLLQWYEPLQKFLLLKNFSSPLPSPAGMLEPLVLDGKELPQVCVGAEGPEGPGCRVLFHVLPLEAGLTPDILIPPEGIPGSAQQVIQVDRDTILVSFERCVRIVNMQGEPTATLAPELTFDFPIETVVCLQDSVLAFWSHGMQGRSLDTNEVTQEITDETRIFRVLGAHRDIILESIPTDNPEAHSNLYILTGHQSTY
# cond: at 0.1 µM
Write down the numeric answer in % and omit the unit.

1. O=C(Nc1n[nH]c2cc(-c3ccccc3)ccc12)C1CC1; 1.56
2. COc1cc(Nc2ncc(-c3ccccc3)o2)cc(OC)c1OC; 2.15
3. COc1ccc2cc(-c3c(-c4ccncc4)nc(-c4ccc([S+](C)[O-])cc4C)n3C)ccc2c1 (centres undefined); -0.16
4. FC(F)(F)c1cccc(Nc2nccc(-c3cnn4nc(-c5ccccc5)ccc34)n2)c1; 0.58

Item under review: O=C1NC(=O)C(c2cccc(Cl)c2)=C1Nc1ccc(Cl)c(C(=O)O)c1 . Reported inhibition? 0.39

Likewise for COc1cc2ncn(-c3cc(OCCc4ccccc4)c(C(N)=O)s3)c2cc1OC ? 1.21

Likewise for Fc1ccc(-c2ncn(C3CCNCC3)c2-c2ccnc(Oc3ccc4c(c3)OCO4)n2)cc1 ? 1.35

Likewise for Fc1ccc(-c2ncn(C3CCNCC3)c2-c2ccnc(Oc3ccc(Oc4ccccc4)cc3)n2)cc1 ? 2.54
